Molecular target: T1, mouse SEMA4D, full length, on CHO-K1 cells (CHO-K1 mSEMA4D) (mouse, UniProt O09126 24-861)
T1 construct: whole, on cells; also called murine SEMA4D recombinant cells
T1 sequence (looked up): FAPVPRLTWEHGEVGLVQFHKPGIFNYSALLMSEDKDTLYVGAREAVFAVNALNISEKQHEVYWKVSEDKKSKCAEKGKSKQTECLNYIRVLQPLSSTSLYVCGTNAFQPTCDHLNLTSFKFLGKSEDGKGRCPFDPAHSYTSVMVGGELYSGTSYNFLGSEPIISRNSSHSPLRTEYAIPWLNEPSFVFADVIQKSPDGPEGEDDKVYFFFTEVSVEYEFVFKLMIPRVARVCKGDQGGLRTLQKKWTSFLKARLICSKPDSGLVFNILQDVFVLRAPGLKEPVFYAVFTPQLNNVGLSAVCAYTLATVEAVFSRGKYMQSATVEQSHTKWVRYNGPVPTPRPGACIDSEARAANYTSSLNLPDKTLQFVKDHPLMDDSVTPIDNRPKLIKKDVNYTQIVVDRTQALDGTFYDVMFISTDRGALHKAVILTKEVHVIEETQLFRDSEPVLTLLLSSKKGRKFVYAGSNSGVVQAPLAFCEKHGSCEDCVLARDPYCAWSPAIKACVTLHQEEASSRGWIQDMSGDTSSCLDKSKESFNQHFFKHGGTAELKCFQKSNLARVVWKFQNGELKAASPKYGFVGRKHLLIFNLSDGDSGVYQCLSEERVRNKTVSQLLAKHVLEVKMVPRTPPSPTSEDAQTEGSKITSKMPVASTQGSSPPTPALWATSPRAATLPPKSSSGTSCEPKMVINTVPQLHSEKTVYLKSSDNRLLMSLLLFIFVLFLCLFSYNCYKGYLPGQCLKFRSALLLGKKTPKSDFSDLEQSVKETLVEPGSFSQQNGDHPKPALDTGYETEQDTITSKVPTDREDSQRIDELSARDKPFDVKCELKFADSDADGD
Experiment: FACS, CHO-K1 mSEMA4D cells; Ab 0.0213 nM
Catalogue of binders with associated MFI

binder	result
31C11G2 (antibody, V domains shown, Mouse monoclonal antibody purified from hybridoma supernatant on protein A) VH: EVQLQQSGAELVRPGASVKLSCTASGFNIKDEYIHWVKQRPEQGLEWIGWIDPANGHTEYASRFQAKATITADTSSNTAYLQLSSLTSEDTAVYYCTTGDYDGFVYWGQGTLVTVST VL: QIVLTQSPAIMSASPGEKVTIFCSARSSVSYMYWYQQKPGSSPKPWIYRTSNLASGVPARFSGSGSGTSYSLTISSMEAEDAATYYCQHYHTYPYTFGGGTKLEIK	30.8
38H2E3 (antibody, V domains shown, Mouse monoclonal antibody purified from hybridoma supernatant on protein A) VH: EFQLQQSGPEVVKPGASVKISCKASGYSFTDYNMNWMKQSKGKSLEWIGVISPDYGTTTYNQNFKDKATLTVDQSSSTAYMQLNSLTSEDSAVYYCAKDMYYVYAYYTMDYWGHGTSVTVSS VL: DVVMTQTPLSLPVSLGDQASISCRSSQSLVHSNGHTYLHWYLQRPGQSPTLLIYKVSNRFSGVPDRVSGSGSGTDFTLKISRVEAEDLGVYFCSQGTHVPRTFGGGTKLEIK	30.1
31G10C5 (antibody, V domains shown, Mouse monoclonal antibody purified from hybridoma supernatant on protein A) VH: EVQLQQSGAELVRPGASVKLSCTASGFNIKDDYIHWVKQRPEQGLEWIGWIDPANGHIEYASNFQAKATITADTSSNTAYLQLSSLTSEDTAVYYCTTGDYDGFTYWGQGTLVTVST VL: QIVLTQSPAIMSASPGEKVTISCSARSSVSYMYWYQQKPGSSPKPWIYRTSNLASGVPARFSGSGSGTSYSLTISSMEAEDAATYYCQHYHTYPYTFGGGTKLEIK	29.6

Next up:
Prompt: Which MFI value is on record for 37C4F7 (antibody, V domains shown, Mouse monoclonal antibody purified from hybridoma supernatant on protein A) VH: EFQLQQSGPEVVKPGASVKISCKASGYSFTDYNMNWMKQSKGKSLEWIGVINPNYGTTTYNQNFKGKATLTVDQSSSTAYMQLNSLTSEDSAVYYCARDMYYVYAYYTMDYWGQGTSVTVSS VL: DVVMTQTPLSLPVSLGDQASISCRSSQSLVHSNGHTYLHWYLQRPGQSPTLLIYKVSNRFSGVPDRFSGSGSGTDFTLKISRVEAEDLGVYFCSQGTHVPWTFGGGTKLEIK ?
Completion: 30.8
